# Lookup of reported viability, T/C keyed by entry
test system: 276233-004-R-J1-PDC complex spheroid viability; experiment: Anticancer human tumor 276233-004-R-J1-PDC patient-derived colon adenocarcinoma cell line growth inhibition [GQUAD]; conditions: second compound 1 µM; first compound 0.316 µM; hits give low values;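 further: spheroids exposed to drugs for seven days; 100% = DMSO vehicle control viability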
READOUT: viability, T/C (%)

[
  {
    "COMPOUND": "COc1ncnc(C2CC2)c1-c1ncc2cnn(Cc3ccc(-c4nc(C(F)(F)F)cn4C(C)C)cc3)c2n1 + CN(C)c1ccc(Nc2c3ccc(NC(=O)CCN4CCCC4)cc3nc3cc(NC(=O)CCN4CCCC4)ccc23)cc1",
    "MEASURED ON": "276233-004-R-J1-PDC complex spheroid viability",
    "UOM": "%",
    "TEST RESULT": 51.4
  },
  {
    "COMPOUND": "O=C(NO)c1cnc(N2CCN(S(=O)(=O)c3ccc4ccccc4c3)CC2)nc1 + CN(C)c1ccc(Nc2c3ccc(NC(=O)CCN4CCCC4)cc3nc3cc(NC(=O)CCN4CCCC4)ccc23)cc1",
    "MEASURED ON": "276233-004-R-J1-PDC complex spheroid viability",
    "UOM": "%",
    "TEST RESULT": 59.9
  },
  {
    "COMPOUND": "O=C(c1cc(Cc2n[nH]c(=O)c3ccccc23)ccc1F)N1CCN(C(=O)C2CC2)CC1 + Cc1[nH]c2ccc(F)cc2c1-c1nc2c3cccnc3c3ncccc3c2[nH]1",
    "MEASURED ON": "276233-004-R-J1-PDC complex spheroid viability",
    "UOM": "%",
    "TEST RESULT": 77.4
  },
  {
    "COMPOUND": "CCc1c2c(nc3ccc(O)cc13)-c1cc3c(c(=O)n1C2)COC(=O)[C@]3(O)CC + CN(C)c1ccc(Nc2c3ccc(NC(=O)CCN4CCCC4)cc3nc3cc(NC(=O)CCN4CCCC4)ccc23)cc1",
    "MEASURED ON": "276233-004-R-J1-PDC complex spheroid viability",
    "UOM": "%",
    "TEST RESULT": 89.7
  },
  {
    "COMPOUND": "COc1ccc([C@@H](O)c2cc(-c3ncnc4cc(N5CCOCC5)ccc34)c(F)cc2Cl)nn1 + Cc1cnc(CNC(=O)c2c(=O)c3ccc(N4CCCN(C)CC4)nc3n3c2sc2ccccc23)cn1",
    "MEASURED ON": "276233-004-R-J1-PDC complex spheroid viability",
    "UOM": "%",
    "TEST RESULT": 75.2
  },
  {
    "COMPOUND": "COc1cc(C2c3cc4c(cc3C(OC3OC5COC(C)OC5C(O)C3O)C3COC(=O)C23)OCO4)cc(OC)c1O (stereo unspecified) + Cc1cnc(CNC(=O)c2c(=O)c3ccc(N4CCCN(C)CC4)nc3n3c2sc2ccccc23)cn1",
    "MEASURED ON": "276233-004-R-J1-PDC complex spheroid viability",
    "UOM": "%",
    "TEST RESULT": 85.8
  },
  {
    "COMPOUND": "CC1COCCN1c1cc(C2(S(C)(=N)=O)CC2)nc(-c2ccnc3[nH]ccc23)n1 (stereo unspecified) + Cc1[nH]c2ccc(F)cc2c1-c1nc2c3cccnc3c3ncccc3c2[nH]1",
    "MEASURED ON": "276233-004-R-J1-PDC complex spheroid viability",
    "UOM": "%",
    "TEST RESULT": 85.4
  },
  {
    "COMPOUND": "O=c1[nH]cc(F)c(=O)[nH]1 + Cc1cnc(CNC(=O)c2c(=O)c3ccc(N4CCCN(C)CC4)nc3n3c2sc2ccccc23)cn1",
    "MEASURED ON": "276233-004-R-J1-PDC complex spheroid viability",
    "UOM": "%",
    "TEST RESULT": 80.4
  },
  {
    "COMPOUND": "Cc1cccc(N(C)C(=O)C2C(O)CCN2c2nc(C)cc(C(F)(F)F)c2C#N)c1 (stereo unspecified) + CN(C)c1ccc(Nc2c3ccc(NC(=O)CCN4CCCC4)cc3nc3cc(NC(=O)CCN4CCCC4)ccc23)cc1",
    "MEASURED ON": "276233-004-R-J1-PDC complex spheroid viability",
    "UOM": "%",
    "TEST RESULT": 63.1
  },
  {
    "COMPOUND": "CC[C@@]1(O)C(=O)OCc2c1cc1n(c2=O)Cc2cc3c(CN(C)C)c(O)ccc3nc2-1 + CN(C)c1ccc(Nc2c3ccc(NC(=O)CCN4CCCC4)cc3nc3cc(NC(=O)CCN4CCCC4)ccc23)cc1",
    "MEASURED ON": "276233-004-R-J1-PDC complex spheroid viability",
    "UOM": "%",
    "TEST RESULT": 57.5
  },
  {
    "COMPOUND": "O=c1[nH]cc(F)c(=O)[nH]1 + Cc1[nH]c2ccc(F)cc2c1-c1nc2c3cccnc3c3ncccc3c2[nH]1",
    "MEASURED ON": "276233-004-R-J1-PDC complex spheroid viability",
    "UOM": "%",
    "TEST RESULT": 73.1
  }
]
